Experimental system: CD73 (Homo sapiens (Human), UniProt P21589)
Sequence (P21589 27-574): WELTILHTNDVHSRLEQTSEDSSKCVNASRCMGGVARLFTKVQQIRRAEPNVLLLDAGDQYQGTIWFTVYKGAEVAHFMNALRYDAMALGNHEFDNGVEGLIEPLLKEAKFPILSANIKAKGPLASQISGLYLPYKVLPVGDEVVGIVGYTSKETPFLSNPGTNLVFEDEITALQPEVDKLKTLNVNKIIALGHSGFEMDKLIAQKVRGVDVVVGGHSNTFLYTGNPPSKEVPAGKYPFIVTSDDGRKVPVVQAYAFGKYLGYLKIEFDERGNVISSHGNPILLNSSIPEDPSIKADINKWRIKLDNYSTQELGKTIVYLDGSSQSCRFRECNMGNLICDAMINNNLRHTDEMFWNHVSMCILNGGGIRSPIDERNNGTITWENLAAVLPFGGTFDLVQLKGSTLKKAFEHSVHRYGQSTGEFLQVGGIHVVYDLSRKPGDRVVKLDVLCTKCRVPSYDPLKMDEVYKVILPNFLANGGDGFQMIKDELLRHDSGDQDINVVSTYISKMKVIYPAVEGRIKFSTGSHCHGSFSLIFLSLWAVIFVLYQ
Assay summary: MDA-MB-231 Cell Based CD73 Activity Assay (DMEM)
Test conditions: MDA-MB-231-GFP cells, DMEM medium with 10% human plasma, 200 uM AMP
Quantity: EC50 (nM)
Numbers only, in nM.

- Entry smiles: "O=C(NC12CC(C1)C2)O[C@H]1CN(c2cc(-c3c[nH]c(=O)[nH]c3=O)nn3ccnc23)CC1(F)F"
  Experimental system: "CD73 (Homo sapiens (Human), UniProt P21589)"
  Unit abbrev: "nM"
  Reading: 0.13

Record EC50 per entry; entries follow.
1. O=c1[nH]cc(-c2cc(N3C[C@@H](F)[C@@H](F)C3)c3nccn3n2)c(=O)[nH]1
2. C[C@]1(F)CCN(c2cc(-c3c[nH]c(=O)[nH]c3=O)nn3ccnc23)C1
3. O=c1[nH]cc(-c2cc([C@H]3C[C@@H]3c3ccc(F)cc3F)n3nccc3n2)c(=O)[nH]1

// result
1: 28.4; 2: 45.8; 3: 15

Taken from patent US20240043427A1.
